Property: Ki; scope: individual compounds
STUDY_SYSTEM: Solute carrier family 22 member 6 (Rattus norvegicus)
Sequence (O35956 whole entry): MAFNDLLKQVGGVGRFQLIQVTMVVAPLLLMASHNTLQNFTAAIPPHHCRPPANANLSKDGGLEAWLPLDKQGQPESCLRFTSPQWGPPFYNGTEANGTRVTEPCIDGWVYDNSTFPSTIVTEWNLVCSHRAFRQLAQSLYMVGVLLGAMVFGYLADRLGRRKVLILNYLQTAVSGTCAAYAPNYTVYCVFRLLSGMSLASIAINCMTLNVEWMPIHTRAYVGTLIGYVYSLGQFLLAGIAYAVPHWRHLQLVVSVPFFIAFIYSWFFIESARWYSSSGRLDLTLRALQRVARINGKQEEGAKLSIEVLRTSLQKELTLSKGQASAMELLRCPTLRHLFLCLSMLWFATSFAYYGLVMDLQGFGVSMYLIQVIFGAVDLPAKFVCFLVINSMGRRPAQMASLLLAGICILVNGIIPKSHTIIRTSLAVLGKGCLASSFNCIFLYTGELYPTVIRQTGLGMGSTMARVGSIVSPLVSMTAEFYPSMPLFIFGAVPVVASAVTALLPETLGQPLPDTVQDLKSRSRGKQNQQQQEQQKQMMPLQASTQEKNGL
ASSAY_OVERVIEW: TP_TRANSPORTER: inhibition of PAH uptake in Xenopus laevis oocytes
PROPERTY_MEASURED: Ki (nM)

> print(dat)
                         chemical.structure                              study.system  unit.spec  result
1         COC(=O)[C@@H](CSCc1ccccc1)NC(C)=O  Solute carrier family 22 member 6 (Rattus norvegicus)         nM     400
2  CC(=O)N[C@@H](CSc1ccc([N+](=O)[O-])cc1[N+](=O)[O-])C(=O)O  Solute carrier family 22 member 6 (Rattus norvegicus)         nM    1900
3  CCCCC/C=C\C\C=C/C=C/C=C/[C@@H](SC[C@H](NC(C)=O)C(=O)O)[C@@H](O)CCCC(=O)O  Solute carrier family 22 member 6 (Rattus norvegicus)         nM    9000
4                 CCSC[C@@H](NC(C)=O)C(=O)O  Solute carrier family 22 member 6 (Rattus norvegicus)         nM    1100
